Tested on: CHP212
Test: Cell proliferation assay (CellTiter-Glo)
Type: cell-based
Details: Homo sapiens, CHP-212, CHP212 cells, 72 h
Observable: pIC50
Entry type: numeric. Quantity: pIC50, the -log10 of concentration in molar units.

Use the examples below as a reference point.
Molecule	Target desc	pIC50
CC(C)=CCC/C(C)=C/Cc1c(O)c(CC=C(C)C)c2c(c1O)C(=O)C1=C[C@@H]3C[C@H]4C(C)(C)O[C@@](C/C=C(\C)C=O)(C3=O)[C@@]14O2 [GB49]	CHP212	5.84
CC(C)=CCC/C(C)=C/Cc1c(O)c(CC=C(C)C)c2c(c1O)C(=O)C1=C[C@@H]3C[C@H]4C(C)(C)O[C@@](C/C=C(\C)C(=O)O)(C3=O)[C@@]14O2 [GB63]	CHP212	5.45

// next item, pIC50 requested
Prompt: Which pIC50 is listed for CN[C@@H]1C[C@H]2O[C@@](C)([C@@H]1OC)n1c3ccccc3c3c4c(c5c6ccccc6n2c5c31)C(=O)NC4 [Staurosporine, staurosporine, reference compound] ?
Response: 8.40
